Cited source for all entries: ChEMBL document CHEMBL1777759

I'd be grateful if you could share measured IC50 for these entries.
- System: Leishmania mexicana
- assay.remarks: Antileishmanial activity against Leishmania mexicana MHOM/MX/ISETGS promastigotes after 72 hrs by neubauer chamber
- Assay type: functional, organism-based
One number for each entry, in µM.

compound	unit.info	IC50
CC(=O)Oc1ccccc1C(=O)Nc1nc2ccc([N+](=O)[O-])cc2s1	µM	1.35

Dear reader, for each entry below, please note its IC50.
1. O=C(Nc1ncc([N+](=O)[O-])s1)c1ccccc1O [TIZOXANIDE]
2. CC(=O)Oc1ccccc1C(=O)Nc1ncc([N+](=O)[O-])s1 [NITAZOXANIDE]

Reply:
[6.19, 6.18]

----------
- assay.remarks: Cytotoxicity against african green monkey Vero cells after 72 hrs by MTT assay
- Assay type: cell-based
- experimental.conditions: chlorocebus sabaeus
property.label: log10 of CC50 at 72 h (log10 of the value in µM)
Note: values are log10 of CC50 at 72 h expressed in µM.

compound	numeric.result
O=C(Nc1ncc([N+](=O)[O-])s1)c1ccccc1O [TIZOXANIDE]	2.59
O=C(Nc1nc2ccc([N+](=O)[O-])cc2s1)c1ccccc1O	2.78
O=C(Cn1ccnc1[N+](=O)[O-])NCc1ccccc1	1.15
CC(=O)Oc1ccccc1C(=O)Nc1ncc([N+](=O)[O-])s1 [NITAZOXANIDE]	2.92
Cc1ncc([N+](=O)[O-])n1CCO	2.59
N=C(N)c1ccc(OCCCCCOc2ccc(C(=N)N)cc2)cc1	1.67

Note: attention shifts to another entry.
Ask: I would be grateful if you could share the reported log10 of CC50 at 72 h for CC(=O)Oc1ccccc1C(=O)Nc1nc2ccc([N+](=O)[O-])cc2s1 .
Reply: 2.83

----------
- System: Leishmania mexicana
- assay.remarks: Antileishmanial activity against Leishmania mexicana MHOM/MX/ISETGS promastigotes after 72 hrs by neubauer chamber
- Format: functional, organism-based
property.label: IC50

compound	IC50
Cc1ncc([N+](=O)[O-])n1CCO [METRONIDAZOLE]	> 50 µM
O=C(Cn1ccnc1[N+](=O)[O-])NCc1ccccc1 [BENZNIDAZOLE]	> 50 µM

Note: attention shifts to another entry.
Ask: # returns recorded IC50 (system: Leishmania mexicana) for O=C(Nc1nc2ccc([N+](=O)[O-])cc2s1)c1ccccc1O
Reply: > 50 µM
